- System under test: UniProtKB P05067
- Assay procedure: Inhibition of amyloid beta1-42 (unknown origin) aggregation assessed as amyloid fibril formation tested after 17 hrs by thioflavin T fluorescence method
pIC50: −log10 of the molar value.
Metric name: pIC50

INSERT INTO measurements (molecule, system_under_test, metric_name, observed) VALUES
  ('COc1c(-c2ccc(O)c(O)c2)oc2c(O)c(O)ccc2c1=O', 'UniProtKB P05067', 'pIC50', 5.27),
  ('O=c1cc(-c2ccc(O)c(O)c2)oc2cc(O)cc(O)c12', 'UniProtKB P05067', 'pIC50', 5.19),
  ('O=C(O[C@@H]1Cc2c(O)cc(O)cc2O[C@@H]1c1cc(O)c(O)c(O)c1)c1cc(O)c(O)c(O)c1 [EPIGALOCATECHIN GALLATE]', 'UniProtKB P05067', 'pIC50', 5.34),
  ('O=C1/C(=C/c2ccc(O)c(O)c2)Oc2c1ccc(O)c2O', 'UniProtKB P05067', 'pIC50', 5.57);

* * *

- System under test: Amyloid-beta precursor protein (Homo sapiens)
- Sequence (P05067 whole entry): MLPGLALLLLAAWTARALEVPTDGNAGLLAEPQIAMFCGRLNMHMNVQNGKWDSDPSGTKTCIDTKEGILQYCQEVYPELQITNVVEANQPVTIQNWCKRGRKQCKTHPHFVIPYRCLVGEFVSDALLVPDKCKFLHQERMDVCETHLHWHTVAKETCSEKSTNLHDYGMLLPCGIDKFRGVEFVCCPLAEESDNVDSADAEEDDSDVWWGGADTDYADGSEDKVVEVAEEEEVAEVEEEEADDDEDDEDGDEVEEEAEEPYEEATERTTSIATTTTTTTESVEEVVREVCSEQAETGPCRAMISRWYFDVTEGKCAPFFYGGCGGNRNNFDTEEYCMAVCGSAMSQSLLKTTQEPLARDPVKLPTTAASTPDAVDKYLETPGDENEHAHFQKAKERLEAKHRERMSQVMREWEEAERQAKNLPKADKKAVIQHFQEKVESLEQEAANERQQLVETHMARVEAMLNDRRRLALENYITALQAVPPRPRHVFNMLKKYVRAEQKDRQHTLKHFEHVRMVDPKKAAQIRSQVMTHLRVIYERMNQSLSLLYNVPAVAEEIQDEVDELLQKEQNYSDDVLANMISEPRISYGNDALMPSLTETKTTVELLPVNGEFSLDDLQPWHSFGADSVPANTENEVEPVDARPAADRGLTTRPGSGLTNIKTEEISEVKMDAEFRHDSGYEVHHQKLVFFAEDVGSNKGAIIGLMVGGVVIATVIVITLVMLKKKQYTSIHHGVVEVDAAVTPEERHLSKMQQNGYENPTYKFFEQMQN
- Assay procedure: Inhibition of amyloid beta1-40 (unknown origin) aggregation
pIC50: −log10 of the molar value.
Metric name: pIC50

INSERT INTO results (compound, system_under_test, metric_name, observed) VALUES
  ('O=C(O[C@@H]1Cc2c(O)cc(O)cc2O[C@@H]1c1cc(O)c(O)c(O)c1)c1cc(O)c(O)c(O)c1 [EPIGALOCATECHIN GALLATE]', 'Amyloid-beta precursor protein (Homo sapiens)', 'pIC50', 5.52);

* * *

- System under test: Amyloid-beta precursor protein (Homo sapiens)
- Assay procedure: Inhibition of amyloid beta1-42 (unknown origin) aggregation assessed as amyloid fibril formation tested at 1:1 compound to peptide ratio after 17 hrs by thioflavin T fluorescence method
- Design: scale not given: the % may be the effect or the level left
Metric name: Activity (%)

INSERT INTO results (compound, unit_info, observed) VALUES
  ('O=C(O[C@@H]1Cc2c(O)cc(O)cc2O[C@@H]1c1cc(O)c(O)c(O)c1)c1cc(O)c(O)c(O)c1 [EPIGALOCATECHIN GALLATE]', '%', 16),
  ('O=C1/C(=C/c2ccc(O)c(O)c2)Oc2c1ccc(O)c2O', '%', 18.5),
  ('COc1c(-c2ccc(O)c(O)c2)oc2c(O)c(O)ccc2c1=O', '%', 21),
  ('O=c1cc(-c2ccc(O)c(O)c2)oc2cc(O)cc(O)c12 [LUTEOLIN]', '%', 14.4);

Data origin: ChEMBL document CHEMBL3297694
